test system: Escherichia coli; assay: Antibacterial activity against Escherichia coli JM101Tr; type: functional
Each item that follows carries a reported MIC.

>  <COMPOUND>
Cc1[nH]c2ccc(Br)cc2c1CC(=O)NO

>  <TARGET_SYSTEM>
Escherichia coli

>  <MIC>
> 300 µg/mL

$$$$
>  <COMPOUND>
COc1ccc2[nH]cc(CC(=O)NO)c2c1

>  <TARGET_SYSTEM>
Escherichia coli

>  <MIC>
> 300 µg/mL

$$$$
>  <COMPOUND>
Cc1c(CN(O)C=O)c2cc(Br)ccc2n1S(=O)(=O)c1ccccc1

>  <TARGET_SYSTEM>
Escherichia coli

>  <MIC>
65 µg/mL

$$$$
>  <COMPOUND>
CCCCC[C@H](CC(=O)NO)C(=O)N[C@H](C(=O)N1CCC[C@H]1CO)C(C)C [ACTINONIN]

>  <TARGET_SYSTEM>
Escherichia coli

>  <MIC>
34 µg/mL

$$$$
>  <COMPOUND>
CC(C)(C)OC(=O)NC(Cc1ccccc1)CN(O)C=O (stereo unspecified)

>  <TARGET_SYSTEM>
Escherichia coli

>  <MIC>
> 300 µg/mL

$$$$

Please look up its MIC: O=C(CO)Cc1c[nH]c2ccc(Br)cc12
> 300 µg/mL

====

biological target: Peptide deformylase 1A, chloroplastic/mitochondrial (Arabidopsis thaliana)
Sequence (Q9FV53 whole entry): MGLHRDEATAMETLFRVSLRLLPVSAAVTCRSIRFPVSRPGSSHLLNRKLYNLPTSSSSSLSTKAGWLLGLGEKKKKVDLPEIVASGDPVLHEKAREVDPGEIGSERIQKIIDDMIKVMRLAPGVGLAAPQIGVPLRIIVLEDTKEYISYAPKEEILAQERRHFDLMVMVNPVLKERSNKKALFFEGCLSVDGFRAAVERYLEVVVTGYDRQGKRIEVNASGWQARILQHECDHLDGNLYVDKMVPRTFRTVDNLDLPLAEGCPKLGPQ
// returns not met unless IC50 is strictly below 200 µM, in which case met

The examples below pair each entry with its known result.
>  <COMPOUND>
CCCCC[C@H](CC(=O)NO)C(=O)N[C@H](C(=O)N1CCC[C@H]1CO)C(C)C

>  <ASSIGNED_CATEGORY>
met

$$$$
>  <COMPOUND>
CC(=O)SCC(=O)Cc1c[nH]c2ccc(Br)cc12

>  <ASSIGNED_CATEGORY>
met

$$$$
>  <COMPOUND>
O=C(O)Cc1c[nH]c2ccccc12

>  <ASSIGNED_CATEGORY>
not met

$$$$
>  <COMPOUND>
O=C(CO)Cc1c[nH]c2ccc(Br)cc12

>  <ASSIGNED_CATEGORY>
not met

$$$$
>  <COMPOUND>
O=C(O)Cc1cn(C(=O)OCc2ccccc2)c2ccccc12

>  <ASSIGNED_CATEGORY>
not met

$$$$

Is IC50 strictly under 200 µM for the entry Cc1[nH]c2ccc(Br)cc2c1CC(=O)NO ?
not met

Please do the same for CC(C)(C)OC(=O)NC(CNO)Cc1ccccc1 (stereo not drawn) as well.
not met

Could you do the same for Cc1c(CN(O)C=O)c2cc(Br)ccc2n1S(=O)(=O)c1ccccc1 , please?
met

Check CC(=O)SCC(=O)Cc1cn(C(=O)OCc2ccccc2)c2ccccc12 too.
not met

====

Biological target: Peptide deformylase (Escherichia coli)
Sequence (Q9JN24 whole entry): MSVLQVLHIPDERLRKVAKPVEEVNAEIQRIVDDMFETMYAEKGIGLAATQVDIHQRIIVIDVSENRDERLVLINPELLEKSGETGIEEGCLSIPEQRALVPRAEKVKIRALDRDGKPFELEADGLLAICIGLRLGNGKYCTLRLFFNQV
VALUE_TYPE: IC50 (µM)
Reply with just the number (in µM).

>  <COMPOUND>
CC(C)(C)OC(=O)NC(CNO)Cc1ccccc1 (configuration not stated)

>  <TARGET_SYSTEM>
Peptide deformylase (Escherichia coli)

>  <UNIT_ABBREVIATION>
µM

>  <IC50>
52

$$$$
>  <COMPOUND>
O=C(CS)Cc1c[nH]c2ccc(Br)cc12

>  <TARGET_SYSTEM>
Peptide deformylase (Escherichia coli)

>  <UNIT_ABBREVIATION>
µM

>  <IC50>
80

$$$$
>  <COMPOUND>
Cc1c(CN(O)C=O)c2cc(Br)ccc2n1S(=O)(=O)c1ccccc1

>  <TARGET_SYSTEM>
Peptide deformylase (Escherichia coli)

>  <UNIT_ABBREVIATION>
µM

>  <IC50>
0.03

$$$$
>  <COMPOUND>
CC(C)(C)OC(=O)NC(Cc1ccccc1)CN(O)C=O (configuration not stated)

>  <TARGET_SYSTEM>
Peptide deformylase (Escherichia coli)

>  <UNIT_ABBREVIATION>
µM

>  <IC50>
0.05

$$$$
>  <COMPOUND>
O=C(O)Cc1cn(C(=O)OCc2ccccc2)c2ccccc12

>  <TARGET_SYSTEM>
Peptide deformylase (Escherichia coli)

>  <UNIT_ABBREVIATION>
µM

>  <IC50>
300

$$$$

Given the compound Cc1c(CNO)c2cc(Br)ccc2n1S(=O)(=O)c1ccccc1 , what is its reported IC50?
6

Next record, please: O=C(CO)Cc1c[nH]c2ccc(Br)cc12
560

Request: CC(=O)SCC(=O)Cc1cn(C(=O)OCc2ccccc2)c2ccccc12
350

Same lookup for CC(=O)SCC(=O)Cc1c[nH]c2ccccc12 , please.
200

And then CCCCC[C@H](CC(=O)NO)C(=O)N[C@H](C(=O)N1CCC[C@H]1CO)C(C)C , what is it?
0.01

Thanks! And CC(=O)SCC(=O)Cc1c[nH]c2ccc(Br)cc12 ?
120

Next up: Cc1[nH]c2ccc(Br)cc2c1CNO
50
